Origin of measurements: ChEMBL document CHEMBL4673302

# Tested on: NCI-H460
# Procedure summary: Anticancer activity against human NCI-H460 cells assessed as cell growth inhibition measured after 48 hrs by sulforhodamine B assay
# Type: functional
# Settings: Homo sapiens, NCI-H460, 48 h
Measurement kind: GI50

>>> print(df.to_string())
                               given_smiles    measured
0  CC(C)(C)NCc1c(C(=O)O)nn(-c2ccccc2)c1-c1ccc(Cl)cc1     70.5 µM
1  COc1ccc(-c2c(CNC(C)(C)C)c(C(=O)O)nn2-c2ccc(Cl)cc2)cc1    > 605 µM
2  CC(C)(C)NCc1c(C(=O)O)nn(-c2ccc(Cl)cc2)c1-c1ccc(Cl)cc1    > 599 µM
3  COc1ccc(-c2c(CNC(C)(C)C)c(C(=O)O)nn2-c2ccccc2)cc1    > 659 µM
4  CC(C)(C)NCc1c(C(=O)O)nn(-c2ccccc2)c1-c1ccc(F)cc1    > 681 µM
5  COc1cccc2c1C(=O)c1c(O)c3c(c(O)c1C2=O)C[C@@](O)(C(=O)CO)C[C@@H]3O[C@H]1C[C@H](N)[C@H](O)[C@H](C)O1  < 0.046 µM
6  CC(C)(C)NCc1c(C(=O)O)nn(-c2ccccc2)c1-c1ccc(Br)cc1    > 585 µM
7  CCOC(=O)c1nn(-c2ccc(Cl)cc2)c(-c2ccc(Br)cc2)c1CNC(C)(C)C    > 511 µM

stdin: # return recorded GI50 for entry CCOC(=O)c1nn(-c2ccccc2)c(-c2ccc([N+](=O)[O-])cc2)c1CNC(C)(C)C
stdout: 429 µM

---

# System: OVCAR-3
# Procedure summary: Anticancer activity against human OVCAR-3 cells assessed as cell growth inhibition measured after 48 hrs by sulforhodamine B assay
# Format: functional
# Settings: Homo sapiens, OVCAR-3, 48 h
Measurement kind: GI50 (µM)

                                   compound  measured
0  CC(C)(C)NCc1c(C(=O)O)nn(-c2ccc(Cl)cc2)c1-c1ccc(Cl)cc1      84.9

(1) CC(C)(C)NCc1c(C(=O)O)nn(-c2ccc(Cl)cc2)c1-c1ccc(F)cc1
(2) CC(C)(C)NCc1c(C(=O)O)nn(-c2ccc(Cl)cc2)c1-c1ccc(Br)cc1
(3) COc1cccc2c1C(=O)c1c(O)c3c(c(O)c1C2=O)C[C@@](O)(C(=O)CO)C[C@@H]3O[C@H]1C[C@H](N)[C@H](O)[C@H](C)O1 [DOXORUBICIN]
stdin: Order the items by recorded GI50; the first position goes to the largest value. Respond with the label ranking, as requested.
stdout: 2, 1, 3

---

# Tested on: K562
# Procedure summary: Anticancer activity against human K562 cells assessed as cell growth inhibition measured after 48 hrs by sulforhodamine B assay
# Format: functional
# Settings: 48 h
Measurement kind: GI50 (µM)

>>> print(df.to_string())
                               given_smiles  unit_of_measure  measured
0  CCOC(=O)c1nn(-c2ccc(Cl)cc2)c(-c2ccc([N+](=O)[O-])cc2)c1CNC(C)(C)C               µM      14.8

---

# Tested on: HaCaT
# Procedure summary: Cytotoxicity against human HaCaT cells assessed as cell growth inhibition measured after 48 hrs by sulforhodamine B assay
# Assay type: cell-based
# Settings: hacat, 48 h
Measurement kind: GI50 (µM)
Response body: numeric value in µM, unit text excluded.

stdin: # return recorded GI50 for entry CCOC(=O)c1nn(-c2ccccc2)c(-c2ccc([N+](=O)[O-])cc2)c1CNC(C)(C)C
stdout: 130

---

# Tested on: U-251
# Procedure summary: Anticancer activity against human U-251 cells assessed as cell growth inhibition measured after 48 hrs by sulforhodamine B assay
# Format: functional
# Settings: Homo sapiens, U-251, 48 h
Measurement kind: GI50

>>> print(df.to_string())
                               given_smiles  measurement_kind  measured
0  COc1ccc(-c2c(CNC(C)(C)C)c(C(=O)O)nn2-c2ccc(Cl)cc2)cc1              GI50    498 µM
1  CC(C)(C)NCc1c(C(=O)O)nn(-c2ccccc2)c1-c1ccc(F)cc1              GI50  > 681 µM
2  CC(C)(C)NCc1c(C(=O)O)nn(-c2ccc(Cl)cc2)c1-c1ccc(F)cc1              GI50  > 623 µM
3  CC(C)(C)NCc1c(C(=O)O)nn(-c2ccccc2)c1-c1ccc([N+](=O)[O-])cc1              GI50  > 634 µM
4  COc1ccc(-c2c(CNC(C)(C)C)c(C(=O)O)nn2-c2ccccc2)cc1              GI50  > 659 µM
5  CC(C)(C)NCc1c(C(=O)O)nn(-c2ccc(Cl)cc2)c1-c1ccccc1              GI50  > 652 µM

stdin: Give reported GI50 value for CC(C)(C)NCc1c(C(=O)O)nn(-c2ccccc2)c1-c1ccc(Cl)cc1
stdout: > 652 µM

stdin: Respond only with GI50 recorded for CCOC(=O)c1nn(-c2ccc(Cl)cc2)c(-c2ccccc2)c1CNC(C)(C)C
stdout: > 608 µM

stdin: Supply measured GI50 of CCOC(=O)c1nn(-c2ccc(Cl)cc2)c(-c2ccc(F)cc2)c1CNC(C)(C)C in your reply.
stdout: 519 µM

stdin: Given COc1cccc2c1C(=O)c1c(O)c3c(c(O)c1C2=O)C[C@@](O)(C(=O)CO)C[C@@H]3O[C@H]1C[C@H](N)[C@H](O)[C@H](C)O1 , respond with its GI50.
stdout: < 0.046 µM

stdin: Please supply the value of reported GI50 for the item CC(C)(C)NCc1c(C(=O)O)nn(-c2ccccc2)c1-c1ccc(Br)cc1
stdout: 126 µM

stdin: Provide only the value of recorded GI50 for CC(C)(C)NCc1c(C(=O)O)nn(-c2ccc(Cl)cc2)c1-c1ccc(Cl)cc1
stdout: 518 µM

---

# Tested on: U-251
# Procedure summary: Anticancer activity against human U-251 cells assessed as cell growth inhibition measured after 48 hrs by sulforhodamine B assay
# Type: functional
# Settings: 48 h
Measurement kind: GI50 (µM)

In [3]: df
Out[3]:
                               given_smiles  measured
0  CCOC(=O)c1nn(-c2ccc(Cl)cc2)c(-c2ccc([N+](=O)[O-])cc2)c1CNC(C)(C)C       340

---

# System: PC-3
# Procedure summary: Anticancer activity against human PC-3 cells assessed as cell growth inhibition measured after 48 hrs by sulforhodamine B assay
# Type: functional
# Settings: Homo sapiens, PC-3, 48 h
Each entry below carries its reported GI50.

>>> df
                                   compound  target_entity  measured
0  CC(C)(C)NCc1c(C(=O)O)nn(-c2ccccc2)c1-c1ccc([N+](=O)[O-])cc1           PC-3  > 634 µM
1  CC(C)(C)NCc1c(C(=O)O)nn(-c2ccc(Cl)cc2)c1-c1ccc(Br)cc1           PC-3  > 542 µM
2  CCOC(=O)c1nn(-c2ccc(Cl)cc2)c(-c2ccc(F)cc2)c1CNC(C)(C)C           PC-3    405 µM
3  CCOC(=O)c1nn(-c2ccc(Cl)cc2)c(-c2ccc(Br)cc2)c1CNC(C)(C)C           PC-3  > 511 µM
4  CCOC(=O)c1nn(-c2ccc(Cl)cc2)c(-c2ccc([N+](=O)[O-])cc2)c1CNC(C)(C)C           PC-3  > 548 µM

stdin: Report GI50 from PC-3 testing of CC(C)(C)NCc1c(C(=O)O)nn(-c2ccc(Cl)cc2)c1-c1ccccc1
stdout: > 652 µM

stdin: // fetch GI50; item: COc1cccc2c1C(=O)c1c(O)c3c(c(O)c1C2=O)C[C@@](O)(C(=O)CO)C[C@@H]3O[C@H]1C[C@H](N)[C@H](O)[C@H](C)O1 [DOXORUBICIN] ; system: PC-3
stdout: 0.42 µM

stdin: Enter GI50 (test system PC-3) for CC(C)(C)NCc1c(C(=O)O)nn(-c2ccc(Cl)cc2)c1-c1ccc(F)cc1
stdout: > 623 µM

---

# Test system: K562
# Procedure summary: Anticancer activity against human K562 cells assessed as cell growth inhibition measured after 48 hrs by sulforhodamine B assay
# Assay type: functional
# Settings: 48 h
Measurement kind: GI50 (µM)

The following compounds have reported results that may help.
>>> print(df.to_string())
                               given_smiles  target_entity  measured
0  CCOC(=O)c1nn(-c2ccc(Cl)cc2)c(-c2ccccc2)c1CNC(C)(C)C           K562      64.5
1  CCOC(=O)c1nn(-c2ccccc2)c(-c2ccccc2)c1CNC(C)(C)C           K562      9.62
2  CCOC(=O)c1nn(-c2ccccc2)c(-c2ccc(Br)cc2)c1CNC(C)(C)C           K562        22
3  CCOC(=O)c1nn(-c2ccccc2)c(-c2ccc(F)cc2)c1CNC(C)(C)C           K562      75.7
4  CCOC(=O)c1nn(-c2ccc(Cl)cc2)c(-c2ccc(Cl)cc2)c1CNC(C)(C)C           K562      11.2

(A) CCOC(=O)c1nn(-c2ccccc2)c(-c2ccc(OC)cc2)c1CNC(C)(C)C
(B) CCOC(=O)c1nn(-c2ccc(Cl)cc2)c(-c2ccc(C)cc2)c1CNC(C)(C)C
stdin: Field: lower GI50 | Options: A / B Give the label of your selection.
stdout: A
(A: 66.6 µM, B: 106 µM)
